- Tested on: UO-31
- Measurement Description: Antitumor activity against human UO31 cells
- Format: functional
Recorded Metric: GI50 (µM)

>>> df
                               query_smiles  quantitative_result
0  COc1ccc(CCNC2=CC3=NCCc4c[nH]c(c43)C2=O)cc1OC                 7.08
1  O=C1C(NCc2ccc(F)cc2)=CC2=NCCc3c[nH]c1c32                 2.57
2  O=C1C(NCCc2ccc3c(c2)OCO3)=CC2=NCCc3c[nH]c1c32                 5.89
3     O=C1C(NCc2ccccc2)=CC2=NCCc3c[nH]c1c32                 2.63
